# Protocol: in vivo
# Details: female, CD-1, mouse
Property name: half-life (min)
Dear colleague, please return just the value in min, with no unit written.

INPUT: Recorded half-life for O=C1CCc2cc(N3CCN(C(=O)c4ccc(F)c(Br)c4)CC3)ncc21 [C48] , please?
OUTPUT: 54.6

---

# Protocol: in vivo
# Details: female, CD-1, mouse, iv
# Vd per record follows
Report the figure in L/kg without appending any unit label.

Completed entries (count: 2):
> print(dat)
                                        mol  unit.annotation  test.result
1  O=C1CCc2cc(N3CCN(C(=O)c4ccc(F)c(Br)c4)CC3)ccc21             L/kg         0.37
2  CC(=O)c1ccc(N2CCN(C(=O)c3ccc4c(c3)OCO4)CC2)cc1             L/kg         0.54

INPUT: # input compound: `O=C1CCc2cc(N3CCN(C(=O)c4ccc(F)c(Br)c4)CC3)ncc21` ; wanted: its Vd
OUTPUT: 0.26
